Tested on: CYP3A4/5
Assay: in vitro
Conditions: human, microsomes, […]
observable: activity at 0.1 µM (%)
Reply numerically in %, unit not repeated.

// field: activity at 0.1 µM; key: CC(C)(C)[C@H](NC(=O)C(F)(F)F)C(=O)N1CC2(C[C@H]1C(=O)N[C@H](C#N)C[C@@H]1CCNC1=O)SCCS2 ; value = 104

###

System: SARS-CoV-2 Delta strain
Experiment: microbe, parasite or virus in culture
Type: cell-based
Conditions: Severe acute respiratory syndrome coronavirus 2, Vero C1008
observable: EC50 (µM)
Reply numerically in µM, unit not repeated.

Note to self: EC50 of CC(C)(C)NC(=O)N[C@H](C(=O)N1C[C@H]2[C@@H]([C@H]1C(=O)N[C@H](C#N)C[C@@H]1CCNC1=O)C2(C)C)C(C)(C)C with SARS-CoV-2 Delta strain was 7.4
